ASSAY NOTES: NCI Yeast Anticancer Drug Screen. Data for the wt2 strain (AID 169);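 further: 0% = growth of vehicle-treated yeast cultures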
EXPERIMENTAL SETUP: S. cerevisiae wt2 strain growth inhibition; at 100.0 µM; active compounds read high
This is part of a sample that, as a whole, favours compounds with a hit. Of some 79,000 tested, about 15% had one in any assay.
READOUT LABEL: growth inhibition (%)
Please respond with the number in % and leave the unit unwritten.

Query block: Form field: reported growth inhibition of "CN(C)CCNC(=O)c1cccc2nc3c4ccccc4c4ccccc4c3nc12"
Result block: 94

Query block: Can you handle CCC(C)/C(C)=N/NC(N)=O (centres undefined) next?
Result block: 2

Query block: Can you handle "COc1ccc2c(C)cc(N/N=C/c3sccc3C)nc2c1" next?
Result block: 73

Query block: Can you handle "CC[C@]1(O)C[C@H]2CN(CCc3c([nH]c4ccccc34)[C@@](C(=O)OC)(c3cc4c(cc3OC)N(C)[C@H]3[C@@](O)(C(=O)OC)[C@H](OC(C)=O)[C@]5(CC)C=CCN6CC[C@]43[C@@H]65)C2)C1" next?
Result block: -4

Query block: Can you handle "CNC(=O)OCc1c(COC(=O)NC)c(C)n(-c2ccc(Cl)c(Cl)c2)c1C" next?
Result block: 97

Query block: Can you handle "CC(C)(C(=O)NN)c1ccccc1" next?
Result block: 83

Query block: Can you handle "O=C(CCCN1CCC2(CC1)OC(=O)N(c1ccccc1)C2=O)c1ccccc1" next?
Result block: 40

Query block: Can you handle O=C1C(C(O)(C(F)(F)F)C(F)(F)F)CCC1C(O)(C(F)(F)F)C(F)(F)F (centres undefined) next?
Result block: 39

Query block: Can you handle CC(C)(C)[Si](C)(C)OCC1OC(n2cnc3c(N)ncnc32)C2OC(=S)OC12 (centres undefined) next?
Result block: 36
